These entries and their values trace back to patent US20050209157A1.

Catalogue of substances with associated HC50 at 1 h
Experiment: in vitro
Format: cell-based, human
Conditions: human, human red blood cells, pH 7, Table 26, valine substitution; read-out: Hemolysis RBC LD50
Protocol: This hemolytic assay is based upon that presented in Journal of Peptide Research 53: 82-90 (1999). […] All procedures were performed according to safety protocols pertaining to the handling and disposal of human body fluids. Red blood cells (RBCs) were washed three times with PBS (35 mM phosphate buffer 0.15 M NaCl, pH 7.0). […] The absorbance at 414 nm (A414) was measured, and used to calculate the percent hemolysis according to the following formula. […]
No end group written: not given here.
Write the answer as a number in µg/mL, unit excluded.

Below are worked cases with known answers.
Q: Could you share which HC50 at 1 h value was measured for VAKALKALLKALKAL-NH2 [compound 501] ?
Result: 15

Q: Likewise for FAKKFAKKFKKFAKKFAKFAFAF-NH2 [compound 301] ?
Result: 10

Q: Lookup FAKKLAKLAKKLLAL-NH2 [compound 38]
Result: 350

Q: Also, FAKLLAKLAKKLL-NH2 [compound 43] please.
Result: 20

Q: // same read-out, input: VALALKALKKL-NH2 [compound 180]
Result: 850

Proceeding to the next substance to report its HC50 at 1 h.
Q: Given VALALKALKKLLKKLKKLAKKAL-NH2 [compound 510] , state its recorded HC50 at 1 h.
Result: 10

----------
S. aureus (MRSA) MIC values by entry
test system: S. aureus (MRSA); type: cell-based, Staphylococcus aureus; conditions: mean of three; 16 to 20 hours at 35° C.
No end group written: not given here.
Write the answer as a number in µg/mL, unit excluded.

Reference set, count: 8
Q: Give S. aureus (MRSA) MIC (S. aureus (MRSA)) of the following substance: FAKKLAKKLKKLAKLALAK-NH2 [P41]
Result: 64

Q: Quick one: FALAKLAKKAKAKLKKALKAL-NH2 [P26]
Result: 32

Q: Another: KYKKALKKLAKLL-NH2 [P146]
Result: 16

Q: How about this substance: FAKLLAKALKKLL-NH2 [P55]
Result: 4

Q: Next record, please: FAKLAKKLL-NH2 [P60]
Result: 32

Q: Try this substance too: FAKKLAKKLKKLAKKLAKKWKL-OH [P72]
Result: 16

Q: Please do the same for FALALKKALKALKKAL-NH2 [P34] as well.
Result: 16

Q: Okay, and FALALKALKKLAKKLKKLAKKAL-NH2 [P25] ?
Result: 16

New cases:
Q: Query the reported S. aureus (MRSA) MIC for S. aureus (MRSA); item: FAKALKALLKALKAL-NH2 [P64]
Result: 8

Q: Consider next the substance FAKLLAKLAKKVL-NH2 [P124] in the same way.
Result: 8

Q: Moving on to the next substance: FAKLLAKLAKKAL-NH2 [P54, FAKLLAKLAKKAL-NH2]
Result: 16

Q: Record: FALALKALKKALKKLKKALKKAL-NH2 [P2, reference compound]
Result: 32

Q: # iterate: VAKKLAKLAKKLAKLAL-NH2 [P50]
Result: 4

----------
tested on: S. epidermidis C621; format: cell-based, Staphylococcus epidermidis; conditions: mean of three; 16 to 20 hours at 35° C.
Catalogue of S. epidermidis C621 MIC values
Hi! Could you send only the number? It should be in µg/mL, unit omitted.

# annotated cases, reported S. epidermidis C621 MIC shown
Q: Entry CC(C)C[C@H](NC(=O)[C@H](C)NC(=O)[C@H](CC(C)C)NC(=O)[C@H](CCCCN)NC(=O)[C@H](C)NC(=O)[C@H](CC(C)C)NC(=O)[C@H](CCCCN)NC(=O)[C@H](CCCCN)NC(=O)[C@H](C)NC(=O)[C@H](CC(C)C)NC(=O)[C@H](CCCCN)NC(=O)[C@H](C)NC(=O)[C@H](CC(C)C)NC(=O)[C@H](CCCCN)NC(=O)[C@H](CCCCN)NC(=O)[C@H](C)NC(=O)[C@@H](N)Cc1ccccc1)C(=O)O [P61] : reported S. epidermidis C621 MIC = ?
Result: 8

Q: Further, for CC[C@H](C)[C@H](N)C(=O)N[C@@H](CC(C)C)C(=O)N1CCC[C@H]1C(=O)N[C@@H](Cc1c[nH]c2ccccc12)C(=O)N[C@@H](CCCCN)C(=O)N[C@@H](Cc1c[nH]c2ccccc12)C(=O)N1CCC[C@H]1C(=O)N[C@@H](Cc1c[nH]c2ccccc12)C(=O)N[C@@H](Cc1c[nH]c2ccccc12)C(=O)N1CCC[C@H]1C(=O)N[C@@H](Cc1c[nH]c2ccccc12)C(=O)N[C@@H](CCCNC(=N)N)C(=O)N[C@@H](CCCNC(=N)N)C(N)=O [P63, reference compound] ?
Result: 16

Q: Continue with CC(C)C[C@H](NC(=O)[C@H](C)NC(=O)[C@H](CC(C)C)NC(=O)[C@H](C)NC(=O)[C@H](CC(C)C)NC(=O)[C@H](CCCCN)NC(=O)[C@H](C)NC(=O)[C@H](CC(C)C)NC(=O)[C@H](CCCCN)NC(=O)[C@H](CCCCN)NC(=O)[C@H](C)NC(=O)[C@H](CC(C)C)NC(=O)[C@H](CCCCN)NC(=O)[C@H](C)NC(=O)[C@H](CC(C)C)NC(=O)[C@H](CCCCN)NC(=O)[C@H](CCCCN)NC(=O)[C@H](C)NC(=O)[C@@H](N)C(C)C)C(N)=O [P504]
Result: 4

Kindly review the next compound as well.
Q: Look up S. epidermidis C621 MIC: CC(C)C[C@H](NC(=O)[C@H](C)NC(=O)[C@H](CC(C)C)NC(=O)[C@H](CCCCN)NC(=O)[C@H](C)NC(=O)[C@H](CC(C)C)NC(=O)[C@H](CCCCN)NC(=O)[C@H](CCCCN)NC(=O)[C@H](C)NC(=O)[C@H](CC(C)C)NC(=O)[C@H](CCCCN)NC(=O)[C@H](C)NC(=O)[C@H](CC(C)C)NC(=O)[C@H](CCCCN)NC(=O)[C@H](CCCCN)NC(=O)[C@H](C)NC(=O)[C@@H](N)Cc1ccccc1)C(N)=O [P35]
Result: 4
